# Tested on: BLK;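 note: KINOMEscan kinase panel screen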
# Particulars: concentration: 1 μM, replicates: in singlicate; n = 1
Provide the recorded %Inh for the entries that follow.
Report only the number, with the unit % understood.

Which %Inh value is on record for O=c1cc(N2CCOCC2)nc2n(Cc3ccc(F)c(Cl)c3)ccn12 [GSK2297099] ?
13

Try Cc1cc(Nc2nc(-c3cccc(C)n3)nc3ccccc23)ccn1 [GW872411] next.
0

Another compound to check: C[C@@H]1CC[C@H](C(=O)NC2CCCCC2)CN1c1cc(-c2ccc3c(N)n[nH]c3c2)nc(N)n1 [GSK2291363]
52

Record: Cl.NS(=O)(=O)c1cccc(Nc2cc(-c3ccc(F)cc3)n[nH]2)c1 [GW824645]
23

And the next one, CN(C)c1cc(-c2ccc3c(N)n[nH]c3c2)nc(N)n1 [GSK2219329] ?
2

// query: COC(=O)c1c(-c2ccccc2)c2cc(C)ccc2c(=O)n1Cc1ccccc1
0

Now consider Cc1nn2c(=O)cc(N3CCOCC3)nc2n1Cc1cccc(Cl)c1Cl [GSK2342769] .
18

Would you mind doing COc1ccc(-c2cc3c(C)nc(N)nc3n([C@H]3CC[C@H](OCCO)CC3)c2=O)cn1 as well?
2

Continue with COc1ccc(Nc2nccc(N3CCC(NS(=O)(=O)c4ccc(NC(C)=O)cc4)C3)n2)cc1 (stereo not drawn) [GSK1379729]
26
